Test system: Quadruplex DNA
PROTOCOL_DETAILS: Stabilization of Parallel c-Myc G4-quadruplex DNA (5'-TGAGGGTGGGTAGGGTGGGTAA-3') (unknown origin) assessed as change in melting temperature at 5 equiv. by CD melting based analysis
Assay type: nucleic-acid assay
VALUE_KIND: ΔTm (°C)
A number alone suffices; assume °C.

Previously resolved entries follow.
COMPOUND_STRING	RESULT_UNIT	VALUE
O=C(NCc1ccccc1)c1ccc2[nH]c(=O)c3cc(=O)c(OCc4ccccc4)cn3c2c1	°C	3.7
N=C(N)NCCCNC(=O)c1ccc2[nH]c(=O)c3cc(=O)c(O)cn3c2c1	°C	3.6

Next molecule, ΔTm to be filled in.
Item under review: `CN(C)CCCNC(=O)c1ccc2[nH]c(=O)c3cc(=O)c(O)cn3c2c1` . Reported ΔTm?
7.4
